Target: NPR-B (Homo sapiens)
Construct: a functional assay using endogenously NPR-B expressing GTM-3 cells; endogenous in cells; host or cells: GTM-3 (human glaucoma trabecular meshwork cells)
Test: NPR-B induced production of cyclic GMP in human glaucoma trabecular meshwork cells (GTM-3)
Assay type: cell-based
Settings: group by EC50 and Emax (CNP = 100%); Table 4; read-out: Activity (group), NPR-B activation assayed with GTM-3 cells
Square brackets hold non-standard residues; d marks the D form. Peptide text beside a SMILES is read from it. * marks the point of attachment. Pro(4R-NH2) = N[C@H]1CN[C@H](C(=O)O)C1; X1 = CCCCCCCCN1CCC[C@H](C(=O)*)C1; dDap(Me2) = CN(C)C[C@@H](N)C(=O)O; NMeL = CN[C@@H](CC(C)C)C(=O)O
Catalogue of EC50 values

Would you please look over these solved cases?
molecule	EC50
CCCCCCCC(=O)N[C@H]1CCN([C@@H](Cc2ccccc2)C(=O)N[C@H](CC(C)C)C(=O)N[C@@H](CC(C)C)C(=O)N2C[C@H](O)C[C@H]2C(=O)N(C)[C@@H](CC(C)C)C(=O)N[C@@H](CC(=O)O)C(=O)N[C@@H](CCCNC(=N)N)C(=O)N[C@H](C(N)=O)[C@@H](C)CC)C1=O	< 1000 nM
CCCCCCCC(=O)N[C@H](C)C(=O)N(C)[C@@H](Cc1ccccc1)C(=O)N[C@H](CCCNC(=N)N)C(=O)N[C@@H](CC(C)C)C(=O)N1C[C@H](O)C[C@H]1C(=O)N(C)[C@@H](CC(C)C)C(=O)N[C@@H](CC(=O)O)C(=O)N[C@@H](CCCNC(=N)N)C(=O)N[C@H](C(N)=O)[C@@H](C)CC [JAL-1085] (HELM PEPTIDE1{[CCCCCCCC(=O)[*:2]].[dA].[meF].[dR].L.[Hyp].[meL].D.R.I.[am]}$$$$V2.0)	< 1000 nM

[ask] Reported EC50, molecule CCCCCCCCN1CCC[C@H](C(=O)N[C@@H](Cc2ccccc2)C(=O)N[C@H](CN(C)C)C(=O)N[C@@H](CC(C)C)C(=O)N2C[C@H](N)C[C@H]2C(=O)N(C)[C@@H](CC(C)C)C(=O)N[C@H](C(=O)N[C@@H](CCCNC(=N)N)C(=O)N[C@H](C(N)=O)[C@@H](C)CC)C(C)C)C1 [JAL-1405] (X1-F[dDap(Me2)]L[Pro(4R-NH2)][NMeL]VRI-NH2) : ____
[reply] < 1000 nM

----------
Catalogue of EC50 values
Biological target: NPR-B (Homo sapiens, UniProt P20594)
Construct: a functional assay using endogenously NPR-B expressing GTM-3 cells; endogenous in cells; host or cells: GTM-3 (human glaucoma trabecular meshwork cells)
Sequence (P20594 23-1047): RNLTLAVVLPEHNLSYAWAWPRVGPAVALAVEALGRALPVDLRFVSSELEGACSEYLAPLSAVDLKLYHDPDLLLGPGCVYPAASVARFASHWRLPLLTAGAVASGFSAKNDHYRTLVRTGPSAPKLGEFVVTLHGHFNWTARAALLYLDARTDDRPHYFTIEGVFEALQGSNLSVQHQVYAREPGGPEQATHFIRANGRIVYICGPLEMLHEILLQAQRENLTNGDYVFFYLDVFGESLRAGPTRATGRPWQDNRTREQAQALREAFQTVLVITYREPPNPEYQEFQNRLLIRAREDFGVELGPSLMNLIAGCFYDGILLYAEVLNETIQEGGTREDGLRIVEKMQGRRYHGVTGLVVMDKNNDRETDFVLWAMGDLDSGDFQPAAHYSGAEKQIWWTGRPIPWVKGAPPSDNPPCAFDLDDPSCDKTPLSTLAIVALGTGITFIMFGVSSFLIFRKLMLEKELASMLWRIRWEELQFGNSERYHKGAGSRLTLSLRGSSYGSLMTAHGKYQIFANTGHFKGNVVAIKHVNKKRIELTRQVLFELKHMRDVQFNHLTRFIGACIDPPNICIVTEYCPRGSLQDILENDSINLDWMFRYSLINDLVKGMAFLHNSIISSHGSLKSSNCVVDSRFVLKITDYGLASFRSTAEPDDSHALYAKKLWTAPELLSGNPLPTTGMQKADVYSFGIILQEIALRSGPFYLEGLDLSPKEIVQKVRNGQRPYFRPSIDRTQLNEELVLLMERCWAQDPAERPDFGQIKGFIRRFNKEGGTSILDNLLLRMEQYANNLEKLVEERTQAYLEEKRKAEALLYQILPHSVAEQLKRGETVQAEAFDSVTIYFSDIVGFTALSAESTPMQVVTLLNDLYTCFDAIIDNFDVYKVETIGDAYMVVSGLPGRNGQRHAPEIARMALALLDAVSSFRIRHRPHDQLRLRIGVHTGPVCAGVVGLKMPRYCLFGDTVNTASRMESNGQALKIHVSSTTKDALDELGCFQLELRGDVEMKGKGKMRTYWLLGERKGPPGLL
Assay: NPR-B induced production of cyclic GMP in human glaucoma trabecular meshwork cells (GTM-3)
Format: cell-based
Conditions: group by EC50 and Emax (CNP = 100%); Table 4; read-out: Activity (group), NPR-B activation assayed with GTM-3 cells
Square brackets hold non-standard residues; d marks the D form. Peptide text beside a SMILES is read from it. * marks the point of attachment. Pro(4R-NH2) = N[C@H]1CN[C@H](C(=O)O)C1; dDap(Me2) = CN(C)C[C@@H](N)C(=O)O; NMeL = CN[C@@H](CC(C)C)C(=O)O; Octanoyl = CCCCCCCC(=O)*

compound	EC50
CCCCCCCC(=O)N[C@H](C)C(=O)N[C@@H](Cc1ccccc1)C(=O)N[C@H](CN(C)C)C(=O)N[C@@H](CC(C)C)C(=O)N1C[C@H](N)C[C@H]1C(=O)N(C)[C@@H](CC(C)C)C(=O)N[C@@H](CC(=O)O)C(=O)N1CCC[C@H]1C(=O)N[C@H](C(N)=O)[C@@H](C)CC [JAL-1453] (Octanoyl-[dA]F[dDap(Me2)]L[Pro(4R-NH2)][NMeL]DPI-NH2)	< 1000 nM

Next up:
[ask] Reported EC50, compound CCCCCCCC(=O)N[C@H](C)C(=O)N[C@@H](Cc1ccccc1)C(=O)N[C@H](CC(C)C)C(=O)N[C@@H](CC(C)C)C(=O)N1CCC[C@H]1C(=O)N(C)[C@@H](CC(C)C)C(=O)N[C@@H](CC(=O)O)C(=O)N[C@@H](CCCNC(=N)N)C(=O)N[C@H](C(N)=O)[C@@H](C)CC [JAL-1039] (HELM PEPTIDE1{[CCCCCCCC(=O)[*:2]].[dA].F.[dL].L.P.[meL].D.R.I.[am]}$$$$V2.0) : ____
[reply] < 1000 nM

----------
Molecular target: NPR-B (Homo sapiens, UniProt P20594)
Construct: a functional assay using endogenously NPR-B expressing GTM-3 cells; endogenous in cells; host or cells: GTM-3 (human glaucoma trabecular meshwork cells)
Sequence (P20594 23-1047): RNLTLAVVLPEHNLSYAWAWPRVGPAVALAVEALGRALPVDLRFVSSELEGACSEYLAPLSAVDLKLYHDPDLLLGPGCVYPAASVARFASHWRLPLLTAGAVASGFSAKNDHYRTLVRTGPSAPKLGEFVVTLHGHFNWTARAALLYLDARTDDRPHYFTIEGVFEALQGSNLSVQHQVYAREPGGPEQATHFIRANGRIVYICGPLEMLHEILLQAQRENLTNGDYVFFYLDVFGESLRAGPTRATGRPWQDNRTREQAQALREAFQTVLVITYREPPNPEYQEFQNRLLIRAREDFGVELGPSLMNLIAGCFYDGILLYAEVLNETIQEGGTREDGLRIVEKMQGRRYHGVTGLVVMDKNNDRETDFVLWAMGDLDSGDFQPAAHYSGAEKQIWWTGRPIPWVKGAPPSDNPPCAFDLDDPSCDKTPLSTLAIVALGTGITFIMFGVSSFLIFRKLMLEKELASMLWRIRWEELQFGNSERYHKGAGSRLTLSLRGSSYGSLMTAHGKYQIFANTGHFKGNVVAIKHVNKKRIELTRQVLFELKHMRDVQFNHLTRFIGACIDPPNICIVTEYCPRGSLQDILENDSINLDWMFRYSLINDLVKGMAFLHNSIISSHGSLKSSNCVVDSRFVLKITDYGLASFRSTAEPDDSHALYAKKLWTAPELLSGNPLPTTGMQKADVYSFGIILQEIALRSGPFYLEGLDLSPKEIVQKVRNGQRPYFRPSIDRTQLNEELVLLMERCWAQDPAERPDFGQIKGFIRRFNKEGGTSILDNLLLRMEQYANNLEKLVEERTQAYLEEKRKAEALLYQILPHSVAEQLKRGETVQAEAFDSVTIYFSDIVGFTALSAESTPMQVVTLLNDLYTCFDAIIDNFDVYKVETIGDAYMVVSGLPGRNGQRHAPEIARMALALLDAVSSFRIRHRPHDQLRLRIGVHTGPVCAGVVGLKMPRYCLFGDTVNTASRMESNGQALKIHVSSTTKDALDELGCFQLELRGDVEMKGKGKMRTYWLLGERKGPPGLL
Assay: NPR-B induced production of cyclic GMP in human glaucoma trabecular meshwork cells (GTM-3)
Assay type: cell-based
Conditions: group by EC50 and Emax (CNP = 100%); Table 4; read-out: Activity (group), NPR-B activation assayed with GTM-3 cells
pEC50: −log10 of the molar value. Numbered stars: 1 amine (or outer) side, 2 acyl side, 3 side chain; on linkers, the order of the positions; unused ones are H or OH. Square brackets hold non-standard residues; d marks the D form. Peptide text beside a SMILES is read from it. * marks the point of attachment. X2 = O=C([C@H]1CCCN([*:1])C1)[*:2]; Hyp = O=C(O)[C@@H]1C[C@@H](O)CN1; NMeL = CN[C@@H](CC(C)C)C(=O)O; X6 = C[C@@H]1CCCC[C@H]1N*; Octanoyl = CCCCCCCC(=O)*
reported endpoint: pEC50

Would you please look over these solved cases?
compound	reported endpoint	assay result
CCCCCCCC(=O)N[C@H](C)C(=O)N[C@@H](Cc1ccccc1)C(=O)N[C@H](CCCNC(=N)N)C(=O)N[C@@H](CC(C)C)C(=O)N1C[C@H](O)C[C@H]1C(=O)N[C@@H](CC(C)(C)C)C(=O)N[C@@H](CC(=O)O)C(=O)N[C@@H](CCCNC(=N)N)C(=O)N[C@H](C(N)=O)[C@@H](C)CC [JAL-1225] (HELM PEPTIDE1{[CCCCCCCC(=O)[*:2]].[dA].F.[dR].L.[Hyp].[CC(C)(C)C[C@H](N[*:1])C(=O)[*:2]].D.R.I.[am]}$$$$V2.0)	pEC50	> 6.00
CCCCCCCC(=O)N1CCC[C@H](C(=O)N[C@@H](Cc2ccccc2)C(=O)N[C@H](CC(C)C)C(=O)N[C@@H](CC(C)C)C(=O)N2C[C@H](O)C[C@H]2C(=O)N(C)[C@@H](CC(C)C)C(=O)N[C@@H](CC(=O)O)C(=O)N2CCC[C@H]2C(=O)N[C@@H]2CCCC[C@H]2C)C1 [JAL-1510, Occ-Sni-Phe-leu-Leu-Hyp-Nml-Asp-Pro-1860] (Octanoyl-[X2]F[dL]L[Hyp][NMeL]DP-X6)	pEC50	> 6.00

[ask] Reported pEC50, compound CCCCCCCC(=O)N1CCC[C@H](C(=O)N(C)[C@@H](Cc2ccccc2)C(=O)N[C@H](CC(C)C)C(=O)N[C@@H](CC(C)C)C(=O)N2C[C@H](O)C[C@H]2C(=O)N(C)[C@@H](CC(C)C)C(=O)N[C@@H](CC(=O)O)C(=O)N[C@@H](CCCNC(=N)N)C(=O)N[C@H](C(N)=O)[C@@H](C)CC)C1 [JAL-1573] (HELM PEPTIDE1{[CCCCCCCC(=O)[*:2]].[O=C([C@H]1CCCN([*:1])C1)[*:2]].[meF].[dL].L.[Hyp].[meL].D.R.I.[am]}$$$$V2.0) : ____
[reply] > 6.00
